# Test system: E. coli BL21
# Assay info: MIC against Gram-negative bacteria: E. coli BL21
# Format: cell-based
# Assay setup: E. coli BL21; 10 h cultivation at 37° C.; 5×10^5 CFU/mL
Test readout: MIC (μg/mL) E. coli BL21

Some entries whose results are on file:
In: Query (substance): PRT233 (DSRGCARWCPQDSSCVNATACRCNPGFSSFSEIITTPMETCD; listed as Homo sapiens) ; field requested: MIC (μg/mL) E. coli BL21
Out: 25 µg/mL

In: // next record PRT829 (FGPSCTLHCDCGGGADCDPVSGQCHCVDGYMGPTCR; listed as Homo sapiens)
Out: 25 µg/mL

In: How about this substance: PRT192 (CPGSGERRICSHHGVCSNEGKCICQPDWTGKDC; listed as Homo sapiens)
Out: 50 µg/mL

In: Proceed to PRT869 (CKCNLHATVCVYDNSKLTCECEHNTTGPDCGKCKKNYQGRPWSPGSYLPIPKGTANTCIP; listed as Homo sapiens)
Out: 25 µg/mL

In: Lookup PRT807 (YGDGCQLPCTCQNGADCHSITGGCTCAPGFMGEVCA; listed as Homo sapiens)
Out: 50 µg/mL

In: Let us now turn to PRT748 (YTASCQPWSCSGHGECVEIINNYTCNCDVGYYGPQCQ; listed as Homo sapiens)
Out: 25 µg/mL

In: Next entry: PRT809 (NESCTCANGAACSPIDGSCSCTPGWLGDTCE; listed as Homo sapiens)
Out: 12.5 µg/mL

In: PRT757 (RINYCALNKPGCEHECVNMEESYYCRCHRGYTLDPNGKTCS; listed as Homo sapiens) ?
Out: 12.5 µg/mL

Further cases:
In: Name the recorded MIC (μg/mL) E. coli BL21 for PRT202 (KSTNCSSKCKGHAVCDHELQCQCEEGWIPPDCD; listed as Homo sapiens) .
Out: 12.5 µg/mL

In: Same question for PRT227 (KGNNCRDSTLCPAYATCTNTVDSYYCACKQGFLSSNGQNHFKDPGVRCK; listed as Homo sapiens) please.
Out: 12.5 µg/mL

In: How about this substance: PRT828 (HGAGCQGLCWCQHGAPCDPISGRCLCPAGFHGHFCE; listed as Homo sapiens)
Out: 50 µg/mL

In: Would you mind doing PRT156 (DINECDSNPCHHGGSCLDQPNGYNCHCPHGWVGANCE; listed as Homo sapiens) as well?
Out: 12.5 µg/mL

In: Entry to check: PRT800 (GRVCQCQNGASCDHISGKCTCRTGFTGQHCE; listed as Homo sapiens)
Out: 50 µg/mL

In: // same read-out, input: PRT770 (FRDPCDPNPCQNDGICVNVKGMASCRCISGHAFFYTGERCQ; listed as Homo sapiens)
Out: 12.5 µg/mL

In: Entry to check: PRT207 (RSSNCSAQCHNHGVCNHKQECHCHAGWAPPHCA; listed as Homo sapiens)
Out: 50 µg/mL

In: Next substance up: PRT876 (TAKPCLSNPCKNNGMCRDGWNRYVCDCSGTGYLGRSCE; listed as Homo sapiens)
Out: 12.5 µg/mL

In: How about this substance: PRT240 (NINECEVEPCKNGGICTDLVANYSCECPGEFMGRNCQ; listed as Homo sapiens)
Out: 12.5 µg/mL

In: Queued: PRT238 (DICDPNPCENGGICLPGLADGSFSCECPDGFTDPNCS; listed as Homo sapiens)
Out: 12.5 µg/mL

In: Lookup PRT799 (FHACSCHNGASCSAEDGACHCTPGWTGLFCT; listed as Homo sapiens)
Out: 12.5 µg/mL

In: And then PRT158 (PGESHANDLECSGKGKCTTKPSEATFSCTCEEQYVGTFCE; listed as Homo sapiens) , what is it?
Out: 12.5 µg/mL

In: Please do the same for PRT817 (FGPGCEQRCQCQHGAACDHVSGACTCPAGWRGTFCE; listed as Homo sapiens) as well.
Out: 12.5 µg/mL

In: // same read-out, input: PRT246 (DINECTMDSHTCSHHANCFNTQGSFKCKCKQGYKGNGLRCS; listed as Homo sapiens)
Out: 12.5 µg/mL

In: Same question for PRT162 (LIDFCALSPCAHGTCRSVGTSYKCLCDPGYHGLYCE; listed as Homo sapiens) please.
Out: 25 µg/mL

====

# Tested on: E. coli DH5α
# Assay info: Antibacterial activity: MIC and growth curve against E. coli DH5α in 96-well plate
# Assay type: cell-based
# Assay setup: minimal inhibitory concentration against E. coli DH5α; 96-well plate, 5×10^5 CFU/mL, 37° C., judged after 8 h
# MIC annotations
Record the value in µg/mL, omitting the unit from your answer.

In: Sample PRT655 (DVDECATTDPCVGGHCVNTEGSFNCLCETGFQPSPESGECV; listed as Homo sapiens) — what was its MIC?
Out: 25

In: Entry to check: PRT1445 (PCLNDCGPYGQCLLLRRHSYLYASCSCKAGWRGWSCT; listed as Homo sapiens)
Out: 50

In: Ok, now PRT232 (DIDECRQDPSTCGPNSICTNALGSYSCGCIAGFHPNPEGSQKDGNFSCQ; listed as Homo sapiens)
Out: 25

In: # iterate: PRT648 (DIDECLNPSTCPDEQCVNSPGSYQCVPCTEGFRGWNGQCL; listed as Homo sapiens)
Out: 12.5

Further cases:
In: Which MIC is listed for PRT137 (NPCQGSATCVNTPGERSFLCKCPPGYSGTICE; listed as Homo sapiens) ?
Out: 25

In: What do you have for PRT1440 (DKDECSKDNGGCQHECVNTMGSYMCQCRNGFVLHDNKHDCK; listed as Homo sapiens) ?
Out: 12.5

In: Okay, and PRT1387 (IMDDCSTNCNGNGECISGHCHCFPGFLGPDCA; listed as Homo sapiens) ?
Out: 12.5

In: Similarly, PRT584 (CQCSHEGALSSLCEKTSGQCLCRTGAFGLRCDRCQRGQWGFPSCRP; listed as Homo sapiens) ?
Out: 50

====

MIC E. cloacae for assorted substances
# Test system: Enterobacter cloacae
# Assay info: MIC against Gram-negative bacteria: Enterobacter cloacae
# Assay type: cell-based
# Assay setup: 96-well plate, 5×10^5 CFU/mL, 37° C., 10 h
Answer as a quantity: numeral, then unit.

In: What does the data say about its MIC E. cloacae? Entry: PRT691 (DINECDEAEAASPLCVNARCLNTDGSFRCICRPGFAPTHQPHHCA; listed as Homo sapiens)
Out: 25 µg/mL

In: Cool, now PRT729 (GSNACNQPTHPNGDCSHFCFPVPNFQRVCGCPYGMRLASNHLTCE; listed as Homo sapiens)
Out: 12.5 µg/mL

In: Also PRT605 (CLCPDDPSSNQYFAHSCYQNLWSSDVICNCLQGYTGTQCGECSTGFYGNPRISGAPCQP; listed as Homo sapiens) ?
Out: 12.5 µg/mL

In: Try this substance too: PRT723 (KERTCAENICEQNCTQLNEGGFICSCTAGFETNVFDRTSCL; listed as Homo sapiens)
Out: 50 µg/mL

In: And then PRT610 (CSCDPSGSIDECNIETGRCVCKDNVEGFNCERCKPGFFNLESSNPRGCTP; listed as Homo sapiens) , what is it?
Out: 50 µg/mL

More entries:
In: Recorded MIC E. cloacae for PRT642 (DVNECDELNNRMSLCKNAKCINTDGSYKCLCLPGYVPSDKPNYCT; listed as Homo sapiens) , please?
Out: 25 µg/mL

In: Also, PRT684 (APVLCPLICHNGGVCVKPDRCLCPPDFAGKFCQ; listed as Homo sapiens) please.
Out: 12.5 µg/mL

====

# System: Aeromonas hydrophila
# Assay info: MIC against Gram-negative bacteria: Aeromonas hydrophila
# Format: cell-based
# Assay setup: Aeromonas hydrophila; 5×10^5 CFU/mL; 10 h cultivation at 37° C.
Test readout: MIC against A. hydrophila (µg/mL)
Kindly answer with a numeric value in µg/mL, unit omitted.

In: I have this substance here, PRT1366 (ERLACPGACSGHGRCVDGRCLCHEPYVGADCG; listed as Homo sapiens) , and I need its recorded MIC against A. hydrophila.
Out: 12.5

Further cases:
In: Any idea what its MIC against A. hydrophila is? The substance is PRT1478 (GGSPCISQPCLHNGSCQDSIWGYTCTCSPGYEGSNCE; listed as Homo sapiens)
Out: 50

In: Try the substance PRT1371 (GTRACPGDCRGRGRCVDGRCVCNPGFTGEDC; listed as Homo sapiens)
Out: 12.5

In: Now this one: PRT1447 (GCGAGRWGPGCTKECPGCLHGGVCHDHDGECVCPPGFTGTRCE; listed as Homo sapiens)
Out: 50
